Overview of reported inhibition across a group of molecules:
Molecular target: Dual specificity protein phosphatase 3 (Homo sapiens)
Experiment: VHR1 phosphatase inhibitors, biochemical (AID 1878)
Settings: recombinant VHR phosphatase, fluorogenic substrate; at 13.3 µM; hits give high values
Among all 1,000 compounds or so, about 200 (20%) were called active. Not all results are given here. Measured potencies and affinities stand elsewhere.
Endpoint Name: inhibition (%)

- COC(=O)c1cc(S(=O)(=O)NCCN2CCN(c3ccccc3F)CC2)c[nH]1: 17.5
- COc1cccc(-c2nc(CS(=O)(=O)CC(=O)N3CCCCC3)c(C)o2)c1: -1
- O=C(c1cc(F)c(F)c(F)c1F)N1CCN(Cc2ccc3c(c2)OCO3)CC1: -6.3
- Cc1nc(C(C)NC(=O)c2ccc(OC3CCN(Cc4ccccn4)CC3)cc2)c(C)s1 (stereo unspecified): -8.5
- Cc1ccc(S(=O)(=O)N(C)C)cc1NC(=S)N(C)C1CCN(C)CC1: -3.6
- COC(=O)c1ccc(NS(=O)(=O)c2ccc3c(c2)n(C)c(=O)n3C)cc1: -7.8
- CC1CCCCN1C(=O)CCC(=O)Nc1nnc(C2CCCCC2)s1 (stereo unspecified): -7.6
- CCOC(=O)c1ccc(NC(=O)CCS(=O)(=O)Cc2ccccc2)cc1: 11.4
- CCN1C(=O)N(c2ccc(C(C)=O)cc2)S(=O)(=O)c2ccccc21: -4.4
- CCc1ccc(/C=C2/SC(=S)N(CCC(=O)Nc3ccc(C(=O)O)cc3)C2=O)cc1: 87.1
- CCC(C(=O)NCCCN1CCN(C)CC1)n1nc(C)n2c(cc3occc32)c1=O (stereo unspecified): -10.7
